- experiment: BBR metabolism kinetics with liver S9 fractions
- Assay type: in vitro ADME, mouse
- condition_set: mouse, liver S9 fraction; liver S9 from db/db mice
- Method: The incubations were carried out for 2 h at 37 °C in a 100 µL reaction volume containing the pooled liver S9 fraction (7.5 mg·mL^−1) and an NADPH‐regenerating system consisting of MgCl2 (40 mM), glucose‐6‐phosphate (40 µM), NADP^+ (8 µM), and glucose 6‐phosphate dehydrogenase (4 U·mL^−1). […] The supernatants were subsequently analyzed by LC‐MS/MS, employing methodologies detailed in previous publications.^[ [27] ^] […]
reported_endpoint: Km at 2 h (µg/mL)

smiles_data	value_observed
CCc1oc2ccccc2c1C(=O)c1cc(Br)c(O)c(Br)c1	9.24

Data credit: paper PMC11744575
